Attribution: ChEMBL document CHEMBL5331051

Tested on: Escherichia coli
Assay: Antibacterial activity against Escherichia coli KCTC 1682 strain assessed as bacterial growth inhibition measured at 18 to 24 hrs in presence of 20% human serum by microdilution assay
Format: functional
Settings: time 18-24 hrs
MIC values for the compounds below.
All answers are understood in µM, so give the number only.

Some solved entries appear below for comparison.
# compound, assay-value
rows = [
    ("NCCCN(CCCN)c1nc(NCc2ccccc2)nc(N2CC(Cc3ccccc3)N(c3nc(NCc4ccccc4)nc(N(CCCN)CCCN)n3)CC2Cc2ccccc2)n1 (stereo not given)", 10),
    ("NCCCCNc1nc(NCCCCN)nc(N2CC(Cc3ccccc3)N(c3nc(NCCCCN)nc(NCCCCN)n3)CC2Cc2ccccc2)n1 (stereo not given)", 10.4),
    ("N=C(N)NCCNc1nc(NCCNC(=N)N)nc(N2CC(Cc3ccccc3)N(c3nc(NCCNC(=N)N)nc(NCCNC(=N)N)n3)CC2Cc2ccccc2)n1 (stereo not given)", 9.7),
    ("NCCNc1nc(NCCN)nc(N2CC(Cc3ccccc3)N(c3nc(NCCN)nc(NCCN)n3)CC2Cc2ccccc2)n1 (stereo not given)", 12.2),
]

Note: attention shifts to another entry.
Name the reported MIC value associated with the compound NCCN(CCN)c1nc(NCc2ccccc2)nc(N2CC(Cc3ccccc3)N(c3nc(NCc4ccccc4)nc(N(CCN)CCN)n3)CC2Cc2ccccc2)n1 (stereo not given)
5.4
